- Assay Procedure: Tacrolimus blood pharmacokinetics without and with omeprazole 20 mg or famotidine 20 mg in kidney transplant patients (CMIA, non-compartmental analysis)
- Type: in vivo, human
- Test Parameters: human, whole blood, oral, group I, 2 h, OM 20 mg (day 2); read-out: C2
- Protocol: The study, randomized, non-blinded, comprised 24 stabilized adult patients between 1–12 months after kidney transplantation (NCT05061303), who received a kidney from a deceased donor. […] In addition, the glomerular filtration rate (GFR) was calculated for each patient using The Chronic Kidney Disease Epidemiology Collaboration (CKD-EPI) creatinine equation to estimate GFR. […] Tacrolimus concentrations were determined using CMIA, by means of Alinity i analyser ([Mei et al., 2018]). […]
Quantity Name: concentration at 2 h (ng/mL)

Smiles Data: C=CC[C@@H]1/C=C(\C)C[C@H](C)C[C@H](OC)[C@H]2O[C@@](O)(C(=O)C(=O)N3CCCC[C@H]3C(=O)O[C@H](/C(C)=C/[C@@H]3CC[C@@H](O)[C@H](OC)C3)[C@H](C)[C@@H](O)CC1=O)[C@H](C)C[C@@H]2OC
Test Result: 11.9
